target: CK2 (Homo sapiens, UniProt P68400); construct: purchased Upstate (Charlottesville, Va.); assay: Broad selectivity panel, 32P incorporation; format: biochemical; conditions: 0.1 μM compound, 40 μM ATP; read-out: Percent inhibition CK2
Sequence (P68400 whole entry): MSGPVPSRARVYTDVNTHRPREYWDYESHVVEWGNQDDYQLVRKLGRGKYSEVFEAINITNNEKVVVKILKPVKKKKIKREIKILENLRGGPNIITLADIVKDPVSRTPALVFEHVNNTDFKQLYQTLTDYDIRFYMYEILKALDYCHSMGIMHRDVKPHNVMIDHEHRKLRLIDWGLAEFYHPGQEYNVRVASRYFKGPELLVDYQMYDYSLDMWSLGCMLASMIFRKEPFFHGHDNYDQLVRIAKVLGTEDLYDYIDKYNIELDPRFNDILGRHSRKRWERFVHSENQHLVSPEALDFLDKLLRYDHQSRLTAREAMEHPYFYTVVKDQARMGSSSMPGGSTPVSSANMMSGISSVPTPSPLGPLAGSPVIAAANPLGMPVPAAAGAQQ
Sequence (P67870 whole entry partner): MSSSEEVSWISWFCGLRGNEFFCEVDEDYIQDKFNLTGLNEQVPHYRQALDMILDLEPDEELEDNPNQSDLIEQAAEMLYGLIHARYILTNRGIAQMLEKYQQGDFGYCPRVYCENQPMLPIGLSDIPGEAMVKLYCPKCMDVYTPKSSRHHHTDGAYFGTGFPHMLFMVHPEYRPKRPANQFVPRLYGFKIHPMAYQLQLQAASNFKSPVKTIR
Recorded measurements of inhibition at 0.1 µM, one per entry
REPORTED_ENDPOINT: inhibition at 0.1 µM (%)

In [3]: df
Out[3]:
                                   compound  assay_result
0  CN1[C@@H]2CC[C@H]1C[C@@H](Nc1nccc(-c3c(-c4ccc(F)cc4)nc4occn34)n1)C2 [CCLXXXI]             6
1  CN(C)CC(C)(C)CNc1nccc(-c2c(-c3ccc(F)cc3)nc3occn23)n1 [CXIX]             9
2  CC(=O)N1CCC(Nc2nccc(-c3c(-c4ccc(F)cc4)nc4occn34)n2)CC1 [CCLXXVIII]             5
3  Fc1ccc(-c2nc3occn3c2-c2ccnc(N[C@H]3CN4CCC3CC4)n2)cc1 [LXXXVII]             4
4  Fc1ccc(-c2nc3occn3c2-c2ccnc(N[C@@H]3CN4CCC3CC4)n2)cc1 [LXXI]             3
5  CS(=O)(=O)N1CCC(Nc2nccc(-c3c(-c4ccc(F)cc4)nc4occn34)n2)CC1 [CCLXXIX]             8
6  Fc1ccc(-c2nc3occn3c2-c2ccnc(NC3CCNCC3)n2)cc1 [CCLXXX]            10
